The measurements presented in this section are drawn from patent US20220396632A1.

target-entity: T1, Human fibrinogen protein (ThermoFisher, RP-43142) (human, UniProt P02671 20-629; P02675 31-491; P02679 27-453, limits assumed, natural sulfotyrosines)
T1 construct: mature; Native dimer with 3 pairs of non-identical chains; also called gamma-fibrinogen; γ fibrinogen protein
T1 sequence (looked up) 1: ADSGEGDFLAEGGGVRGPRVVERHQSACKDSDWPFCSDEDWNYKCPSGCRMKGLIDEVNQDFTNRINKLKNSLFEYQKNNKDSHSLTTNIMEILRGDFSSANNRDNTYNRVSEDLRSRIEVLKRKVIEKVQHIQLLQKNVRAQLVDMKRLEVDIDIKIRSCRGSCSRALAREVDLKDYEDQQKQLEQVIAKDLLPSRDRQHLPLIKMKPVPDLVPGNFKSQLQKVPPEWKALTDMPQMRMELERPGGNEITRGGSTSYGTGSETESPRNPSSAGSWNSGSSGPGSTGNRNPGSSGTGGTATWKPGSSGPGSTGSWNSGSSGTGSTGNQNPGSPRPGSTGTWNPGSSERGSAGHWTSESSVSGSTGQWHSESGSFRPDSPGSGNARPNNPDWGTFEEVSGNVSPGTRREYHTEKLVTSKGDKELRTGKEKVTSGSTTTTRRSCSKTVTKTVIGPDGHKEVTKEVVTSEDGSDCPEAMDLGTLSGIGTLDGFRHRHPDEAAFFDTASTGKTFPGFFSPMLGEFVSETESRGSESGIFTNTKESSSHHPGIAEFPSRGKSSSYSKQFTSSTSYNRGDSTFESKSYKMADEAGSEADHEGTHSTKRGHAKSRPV
T1 sequence (looked up) 2: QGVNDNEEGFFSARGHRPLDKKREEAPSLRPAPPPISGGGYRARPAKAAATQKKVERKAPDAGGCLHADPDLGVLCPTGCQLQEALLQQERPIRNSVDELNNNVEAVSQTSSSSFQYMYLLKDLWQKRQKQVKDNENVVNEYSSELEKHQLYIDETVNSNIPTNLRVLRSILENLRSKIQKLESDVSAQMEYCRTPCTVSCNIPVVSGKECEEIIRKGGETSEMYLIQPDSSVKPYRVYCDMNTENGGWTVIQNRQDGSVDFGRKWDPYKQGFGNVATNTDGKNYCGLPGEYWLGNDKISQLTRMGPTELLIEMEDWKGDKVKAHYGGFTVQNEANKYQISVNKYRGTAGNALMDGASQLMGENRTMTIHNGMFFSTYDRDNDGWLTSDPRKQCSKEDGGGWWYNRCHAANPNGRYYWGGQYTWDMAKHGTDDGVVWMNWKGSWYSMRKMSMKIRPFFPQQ
T1 sequence (looked up) 3: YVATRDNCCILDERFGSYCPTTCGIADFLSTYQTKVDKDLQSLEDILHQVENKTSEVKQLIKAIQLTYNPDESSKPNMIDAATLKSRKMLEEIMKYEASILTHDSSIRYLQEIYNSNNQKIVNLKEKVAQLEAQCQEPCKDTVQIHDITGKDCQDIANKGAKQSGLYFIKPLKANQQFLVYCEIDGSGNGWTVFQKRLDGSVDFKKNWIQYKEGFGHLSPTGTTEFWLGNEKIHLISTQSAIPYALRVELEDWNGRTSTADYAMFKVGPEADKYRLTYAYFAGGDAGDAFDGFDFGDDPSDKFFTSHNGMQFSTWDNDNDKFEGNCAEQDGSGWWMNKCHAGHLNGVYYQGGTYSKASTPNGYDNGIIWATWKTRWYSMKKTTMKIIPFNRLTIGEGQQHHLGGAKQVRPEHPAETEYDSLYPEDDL
procedure-text: ELISA, 50 nM mAb
value-kind: binding normalized to PSGL-1
Just the number, please, no unit after it.

Consider the worked cases shown below.
binder	binding normalized to PSGL-1
09B09 (antibody, IgG4, V domains shown) VH: EVKLLESGGGLVQPGGSLRLSCAASGITFSTYAMMWVRQAPGKGLEWVSGISGSGASRYYADSVKGRFTISRDNSKNMLYLQMNSLRAEDTAVYYCAKKVLGRRKQYFDDWGQGTLVTVSS VL: DIVMTQSPLSLPVTPGEPASISCRSSQSLLHSNGYNYLDWYLQRPGQSPQLLIYLGSHRASGVPDRFSGSGSGTEHTLKITTVAAEDVGVYYCMQALQSPPTFGQGTRLDIK	-0.15
06C04 (antibody, IgG4, V domains shown) VH: EVQLVESGGGLVQPGGSLRLSCAASGFTFSDHYMDWVRQAPGKGLEWVGRSRNKVKSYTTAYAASVEGRITISRDDSKNSLYLEMNSLKTEDTAVYYCVRVRWGGAFDIWGQGTMVTVSS VL: QPVLTQPPSASGSPGQSVTISCTGTSSDVGGYNYVSWYQQHPGKAPKLMIYEVSKRPSGVPDRFSGSKSGNTASLTVSGLQAEDEADYYCSSYAGSNNLRVFGGGTKLTVL	0.51
03B04 (antibody, IgG4, V domains shown) VH: EVKLLESGGGLVKPGGSLRLSCAASGFAFSRYTMNWVRQAPGKGLEWVSSISSSSSYIYYADSVKGRFTISRDNAKNSLVLQMNSLRPEDTAVYYCARGGIAANDYWGQGTLVTVSS VL: EIVMTQTPLSLPVTLGQPASISCRSSRNLVHYDGNTYLSWFHQRPGQPPRRLIYKISNRESGVPDRFSGSGSGTDFTLKISRVEAEDVGVYYCLQHTHWPWTFGPGTKVEIK	-0.07
18F02 (antibody, V domains shown, From mouse immunisation; only variable domains given) VH: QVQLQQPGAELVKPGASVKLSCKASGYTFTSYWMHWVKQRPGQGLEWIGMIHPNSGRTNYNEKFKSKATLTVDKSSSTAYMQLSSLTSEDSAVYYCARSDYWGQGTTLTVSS VL: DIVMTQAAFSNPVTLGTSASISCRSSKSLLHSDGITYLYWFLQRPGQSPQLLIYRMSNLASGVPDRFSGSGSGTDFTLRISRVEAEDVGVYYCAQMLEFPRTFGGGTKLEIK	0.01

// below: binding normalized to PSGL-1 requested for another binder
Req: In one line, give reported binding normalized to PSGL-1 of the entry 07E07 (antibody, IgG4, V domains shown) VH: QVQLQQSGAEVKKPGASVKVSCKASGYTFTSYYMHWVRQAPGQGLEWMGIINTSSGSTKYAQRFQDRVTVTRDTSTTTVYMELNSLRSEDTAVYYCARGGRAYSGSFDNWGQGTLVTVSS VL: DVVMTQSPLSLPVTLGQPASISCRSSQSLVHRDGNTYFNWFQQRPGQSPRRLIYKVSNRDSGVPDRFSGSGSGTDFTLKISRVEAEDVGVYYCMQATHWPRTFGQGTKVEIK .
Resp: 0.29
